Details: human, microsomes
Catalogue of molecules with associated Human Pred Cl.

{"columns": ["molecule", "relation-operator", "Human Pred Cl. (L/H/kg)"],
 "data": [
  ["COC(=O)N[C@H](C(=O)N[C@@H](Cc1ccc(C#Cc2ccc(N3CC4CCC(C3)N4C3COC3)nc2)cc1)[C@@H](O)CN(Cc1c(F)cc(-c2ccccn2)cc1Cl)NC(=O)[C@@H](NC(=O)OC)C(C)(C)C(F)(F)F)C(C)(C)C(F)(F)F [Example 74]", "=", 0.17],
  ["COC(=O)N[C@H](C(=O)N[C@@H](Cc1ccc(C#Cc2ccc(N3CC4CCC(C3)N4C3COC3)nc2)cc1)[C@@H](O)CN(Cc1c(F)cc(-c2cc3n(n2)CCOC3)cc1F)NC(=O)[C@@H](NC(=O)OC)C(C)(C)C(F)(F)F)C(C)(C)C(F)(F)F [Example 57]", "<", 0.11]
]}

Entry source: patent US10294234B2
